Assay: Induction of heme alkylation of Fe(II) heme assessed as loss of heme at 10 uM in presence of 50% ACN-H2O with excess sodium dithionite under argon at 20 degC by spectrophotometry
quantityMeasured: inhibition

Study these solved cases before continuing.
In: What value of inhibition has been recorded for this entry: `CC(C)(O)[C@H]1CC[C@]2(CC1)OO[C@]1(O2)C2CC3CC(C2)CC1C3`
Out: 30%

In: Bench note: what inhibition did c1ccc([C@@H]2OOC3(O2)C2CC4CC(C2)CC3C4)cc1 (some centres undefined) show?
Out: 16%

In: What does the data say about its inhibition? Entry: `OC[C@H]1CC[C@]2(CC1)OO[C@]1(O2)C2CC3CC(C2)CC1C3`
Out: 83%

In: Item under review: NC[C@H]1CC[C@]2(CC1)OOC1(O2)C2CC3CC(C2)CC1C3 (some centres undefined) . Reported inhibition?
Out: 83%

In: I'd like to know its inhibition. The compound in question is `C[C@H]1[C@@H](O)O[C@@H]2O[C@@]3(C)CC[C@H]4[C@H](C)CC[C@@H]1[C@@]24OO3`
Out: 28%

Continuing:
In: Returns the measured inhibition for the input compound. Input: `O=C(O)[C@H]1CC[C@]2(CC1)OO[C@]1(O2)C2CC3CC(C2)CC1C3`
Out: 74%

In: I'd like to know its inhibition. The compound in question is `CC(C)(N)CNC(=O)C[C@H]1CC[C@]2(CC1)OO[C@]1(O2)C2CC3CC(C2)CC1C3`
Out: 83%

In: # lookup: inhibition of O=C1CCC2(CC1)OOC1(O2)C2CC3CC(C2)CC1C3 (centres undefined)
Out: 81%

In: What value of inhibition has been recorded for this entry: `O=C(O)C[C@H]1CC[C@]2(CC1)OO[C@]1(O2)C2CC3CC(C2)CC1C3`
Out: 83%

* * *

Test: Induction of heme alkylation of Fe(II) heme assessed as loss of heme at 10 uM in presence of 50% ACN-H2O with excess sodium dithionite under argon at 20 degC by spectrophotometry
quantityMeasured: inhibition
The answer consists of two parts: a number and, after it, its unit.

Worked examples, 3 compounds total:
In: Query: inhibition; subject: `C[C@@H]1CC[C@H]2[C@@H](C)C(=O)O[C@@H]3O[C@@]4(C)CC[C@@H]1[C@]32OO4`
Out: 15%

In: Could you share which inhibition value was measured for C[C@H]1[C@H](OC(=O)CCC(=O)O)O[C@@H]2O[C@@]3(C)CC[C@H]4[C@H](C)CC[C@@H]1[C@@]24OO3 [ARTESUNATE] ?
Out: 44%

In: Requested read-out: inhibition. Entry: `O=C1C2CC3CC1CC(C2)[C@]31OO[C@@]2(CCCCC2)O1`
Out: 61%

Further cases:
In: Sample c1ccc(C2(c3ccccc3)CCC3(CC2)OOC2(O3)C3CC4CC(C3)CC2C4)cc1 (centres undefined) — what was its inhibition?
Out: 11%

* * *

System: Plasmodium falciparum
Assay: Antimalarial activity against chloroquine-resistant Plasmodium falciparum K1
Assay type: functional, organism-based
pIC50: −log10 of the molar value.
// class assignment uses pIC50 with these ranges: low-valued = under 7, mid-valued = from 7 up to 8, high-valued = 8 and over

Look over these answered cases.
In: Class label required: C[C@H]1[C@@H](O)O[C@@H]2O[C@@]3(C)CC[C@H]4[C@H](C)CC[C@@H]1[C@@]24OO3 [ARTENIMOL]
Out: high-valued

In: Class? Entry: `CC(C)(O)[C@H]1CC[C@]2(CC1)OO[C@]1(O2)C2CC3CC(C2)CC1C3`
Out: low-valued

In: Tag the class for `Clc1ccc([C@H]2CC[C@]3(CC2)OO[C@]2(O3)C3CC4CC(C3)CC2C4)cc1`
Out: mid-valued

More entries:
In: Hi there! Could you help me figure out the category for `O=C1C2CC3CC1CC(C2)[C@]31OO[C@@]2(CCCCC2)O1` please?
Out: mid-valued

In: Band for `O=C(O)[C@H]1CC[C@]2(CC1)OO[C@]1(O2)C2CC3CC(C2)CC1C3` ?
Out: mid-valued

In: Bin? `C1CC[C@]2(CC1)OO[C@]1(O2)C2CCCC1CCC2`
Out: low-valued

In: Form field 'band' for `OC[C@H]1CC[C@@]2(CC1)OO[C@@]1(O2)C2CC3CC(C2)CC1C3`
Out: high-valued

In: For `CCC[C@H]1CC[C@]2(CC1)OO[C@]1(O2)C2CC3CC(C2)CC1C3` , which pIC50 bin applies?
Out: high-valued

In: Categorize the following entry: C1CCC2(CC1)OOC1(O2)C2CC3CC(C2)CC1C3 (centres undefined)
Out: high-valued

* * *

Test: Induction of heme alkylation of Fe(II) heme assessed as adduct A472 absorbance change at completion of reaction at 10 uM in presence of 50% ACN-H2O with excess sodium dithionite under argon at 20 degC by spectrophotometry
Outcome: Fulfilled for deltaA of at least 0.8; Not fulfilled for anything lower.

Reference set (2 entries):
In: Exam item: decide whether the reported deltaA for `C1CC[C@]2(CC1)OO[C@]1(O2)C2CCCC1CCC2` is at least 0.8.
Out: Not fulfilled

In: Exam item: decide whether the reported deltaA for O=C1CCC2(CC1)OOC1(O2)C2CC3CC(C2)CC1C3 (stereo not given) is at least 0.8.
Out: Fulfilled

Further cases:
In: Threshold query (deltaA >= 0.8) on `O=C(O)[C@H]1CC[C@]2(CC1)OO[C@]1(O2)C2CC3CC(C2)CC1C3`
Out: Fulfilled

In: Tell me whether deltaA is at least 0.8 here: C[C@@]1(c2ccccc2)OOC2(O1)C1CC3CC(C1)CC2C3 (stereo not given in full)
Out: Not fulfilled

In: Has `OC[C@H]1CC[C@]2(CC1)OO[C@]1(O2)C2CC3CC(C2)CC1C3` a recorded deltaA greater than or equal to 0.8?
Out: Fulfilled

In: Quick check, deltaA >= 0.8? C[C@H]1[C@H](OC(=O)CCC(=O)O)O[C@@H]2O[C@@]3(C)CC[C@H]4[C@H](C)CC[C@@H]1[C@@]24OO3 [ARTESUNATE]
Out: Not fulfilled

In: Tell me whether deltaA is at least 0.8 here: `CC(C)(O)[C@H]1CC[C@]2(CC1)OO[C@]1(O2)C2CC3CC(C2)CC1C3`
Out: Not fulfilled

In: Say whether NC[C@H]1CC[C@]2(CC1)OOC1(O2)C2CC3CC(C2)CC1C3 (stereo not given in full) shows deltaA of 0.8 or more.
Out: Fulfilled

In: Is deltaA at least 0.8? Consider c1ccc([C@@H]2OOC3(O2)C2CC4CC(C2)CC3C4)cc1 (stereo not given in full)
Out: Not fulfilled

In: Evaluate `O=C(O)C[C@H]1CC[C@]2(CC1)OO[C@]1(O2)C2CC3CC(C2)CC1C3` : deltaA at minimum 0.8?
Out: Fulfilled

In: API: above_or_equal(metric=deltaA, cutoff=0.8) for item C1CCC2(CC1)OOC1(O2)C2CC3CC(C2)CC1C3 (stereo not given)
Out: Fulfilled

In: Identify whether the reported deltaA of the following compound is 0.8 or greater: `CC(C)(C)[C@H]1CC[C@]2(CC1)OO[C@]1(O2)C2CC3CC(C2)CC1C3`
Out: Not fulfilled

* * *

Quick list: inhibition per entry.
Assay: Induction of heme alkylation of Fe(II) heme assessed as loss of heme at 10 uM in presence of 50% ACN-H2O with excess sodium dithionite under argon at 20 degC by spectrophotometry
The figure you give is taken to be in %; do not add the unit.

// worked examples, inhibition included
In: Look at this compound and give its reported inhibition. `O=S(=O)(O)OC[C@H]1CC[C@]2(CC1)OO[C@]1(O2)C2CC3CC(C2)CC1C3`
Out: 81

In: What does the record list as inhibition for `CO[C@H]1O[C@@H]2O[C@@]3(C)CC[C@H]4[C@H](C)CC[C@@H]([C@H]1C)[C@@]24OO3` ?
Out: 24

In: Look up inhibition for this compound: `C1CCC2(CC1)OOC1(CCCCC1)O2`
Out: 17

Continuing:
In: Can you share its inhibition? I mean this compound: `C1CC[C@]2(CC1)OO[C@]1(O2)C2CCCC1CCC2`
Out: 9

* * *

Experiment: Induction of heme alkylation of Fe(II) heme assessed as adduct A472 absorbance change at completion of reaction at 10 uM in presence of 50% ACN-H2O with excess sodium dithionite under argon at 20 degC by spectrophotometry
quantityMeasured: deltaA
Keep it simple and answer with nothing but the number.

In: Returns the measured deltaA for the input compound. Input: c1ccc(C2(c3ccccc3)CCC3(CC2)OOC2(O3)C3CC4CC(C3)CC2C4)cc1 (centres undefined)
Out: 0.1

In: // deltaA lookup, key: `CC(C)(N)CNC(=O)C[C@H]1CC[C@]2(CC1)OO[C@]1(O2)C2CC3CC(C2)CC1C3`
Out: 0.89

In: Value lookup for deltaA; key = `OC[C@H]1CC[C@@]2(CC1)OO[C@@]1(O2)C2CC3CC(C2)CC1C3`
Out: 0.78

Now for the compound whose deltaA we want.
In: Given the entry `C1CCC2(CC1)OOC1(CCCCC1)O2` , report its measured deltaA.
Out: 0.03
